Reference source: patent US9513294B2

- experimental-protocol: Quantum yield measurements versus Acridine Yellow in EtOH
- Assay type: physicochemical
- particulars: MK library, Table 5; excitation 460 nm
- Method: ^1H-NMR, ^19F-NMR and ^13C-NMR spectra were recorded on Bruker ACF300 (300 MHz), DPX300 (300 MHz) and AMX500 (500 MHz) spectrometers. High resolution mass spectra (ESI) were obtained on a Finnigan/MAT 95XL-T spectrometer. Spectroscopic and quantum yield data were measured on a SpectraMax M2 spectrophotometer (Molecular Devices). Data analysis was performed using GraphPrism 5.0. […]
endpoint-label: φ (quantum yield) (%)

Example compounds with recorded φ (quantum yield):
# compound, φ (quantum yield), %
records = [
    ("Nc1ccc(C2=C3C=CC(NCc4cc(F)cc(F)c4)=[N+]3[B-](F)(F)n3c2ccc3-n2cc(CO)nn2)cc1 [MK412-70]", 1.89),
    ("COc1ccc(OC)c(CNC2=[N+]3C(=C(c4ccc(N)cc4)c4ccc(-n5cc(CN(C)Cc6ccccc6)nn5)n4[B-]3(F)F)C=C2)c1 [MK181-18]", 0.52),
    ("CCCC(C)c1cn(-c2ccc3n2[B-](F)(F)[N+]2=C(N4CCCC4)C=CC2=C3c2ccc(N)cc2)nn1 (stereo not drawn) [MK215-3]", 0.26),
    ("CCOc1ccccc1CNC1=[N+]2C(=C(c3ccc(N)cc3)c3ccc(-n4cc(C5CCCC5)nn4)n3[B-]2(F)F)C=C1 [MK103-5]", 2.01),
    ("CCCCCC(O)c1cn(-c2ccc3n2[B-](F)(F)[N+]2=C(NCc4ccccc4OCC)C=CC2=C3c2ccc(N)cc2)nn1 (stereo not drawn) [MK103-69]", 2.28),
]

(1) CCCC(C)c1cn(-c2ccc3n2[B-](F)(F)[N+]2=C(NCc4cc(OC)ccc4OC)C=CC2=C3c2ccc(N)cc2)nn1 (stereo not drawn) [MK181-3]
(2) Cc1ccccc1CNC1=[N+]2C(=C(c3ccc(N)cc3)c3ccc(-n4cc(CC(C)C)nn4)n3[B-]2(F)F)C=C1 [MK101-43]
Q. Lab note: record which item had the higher φ (quantum yield), 1 or 2 . Lab note: record the label of whichever item you select.
A. 2

(I) CN(Cc1ccccc1)C1=[N+]2C(=C(c3ccc(N)cc3)c3ccc(-n4cc(C5CC5)nn4)n3[B-]2(F)F)C=C1 [MK195-4]
(II) CCOc1ccccc1CNC1=[N+]2C(=C(c3ccc(N)cc3)c3ccc(-n4cc(CO)nn4)n3[B-]2(F)F)C=C1 [MK103-70]
(III) Nc1ccc(C2=C3C=CC(N4CCc5ccccc5C4)=[N+]3[B-](F)(F)n3c2ccc3-n2cc(C3CCCC3)nn2)cc1 [MK66-5]
(IV) CCCC(C)c1cn(-c2ccc3n2[B-](F)(F)[N+]2=C(N4CC(C)OC(C)C4)C=CC2=C3c2ccc(N)cc2)nn1 (stereo not drawn) [MK20-3]
Q. List items by φ (quantum yield) in falling order. Give the labels in the order requested.
A. II, I, III, IV

(a) Nc1ccc(C2=C3C=CC(N4CCc5ccccc5C4)=[N+]3[B-](F)(F)n3c2ccc3-n2cc(CO)nn2)cc1 [MK66-70]
(b) CCCCCC(O)c1cn(-c2ccc3n2[B-](F)(F)[N+]2=C(NCc4ccccc4C)C=CC2=C3c2ccc(N)cc2)nn1 (stereo not drawn) [MK101-69]
(c) CCOc1ccccc1CNC1=[N+]2C(=C(c3ccc(N)cc3)c3ccc(-n4cc(C5CC5)nn4)n3[B-]2(F)F)C=C1 [MK103-4]
Q. List items by φ (quantum yield) in falling order. Give the labels in the order requested.
A. b, c, a

(1) CCCCCC(O)c1cn(-c2ccc3n2[B-](F)(F)[N+]2=C(NCc4cc(F)cc(F)c4)C=CC2=C3c2ccc(N)cc2)nn1 (stereo not drawn) [MK412-69]
(2) Cc1ccccc1CNC1=[N+]2C(=C(c3ccc(N)cc3)c3ccc(-n4cc(CN(C)Cc5ccccc5)nn4)n3[B-]2(F)F)C=C1 [MK101-18]
Q. Lab note: record which item had the higher φ (quantum yield), 1 or 2 . Lab note: record the label of whichever item you select.
A. 1
